All values here come from the RNAGym collection of RNA variant scans (doi:10.1101/gr.219683.116).

B1: mRNA-splicing (parent)
chain: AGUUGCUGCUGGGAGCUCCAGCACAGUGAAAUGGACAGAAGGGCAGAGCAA

variants of: B1; test: exon inclusion enrichment index; higher = more inclusion; WT1 exon 5 minigene, HEK293
If the reported exon inclusion enrichment index equals or exceeds 0.09, assign Yes. If not, assign No.

Req: Please indicate if the recorded exon inclusion enrichment index for G5U G8U C9U A23C C24G meets or exceeds 0.09.
Resp: Yes

Req: Similarly, G5A C6U U7A G8U C9A C22G A23C ?
Resp: No

Req: Similarly, G5U G8U C9U A31U U32G ?
Resp: No

Req: Similarly, C6A U7C C9A U10C A25C G26U ?
Resp: Yes

Req: Similarly, C6A U7C C9A U10C A30G A31C ?
Resp: Yes

Req: Similarly, C6A U7A C9A U10A C18A C19U ?
Resp: No

Req: Similarly, G5A U7C G8A U10C G38C A39C ?
Resp: Yes

Req: Similarly, G5C C6U G8C C9U U10C G12U ?
Resp: Yes

Req: Similarly, C6A U7A C9A U10A G12C G13U ?
Resp: Yes

Req: Similarly, G5C C6U G8C C9U U10C A35C C36U ?
Resp: Yes

Req: Similarly, C6U U7C U10C ?
Resp: Yes

Req: Similarly, G5C C6A U7C G8A U10A U32G ?
Resp: No

Req: Similarly, G5A C6U U7A G8U C9A G34U A35U ?
Resp: No

Req: Similarly, C6A U7C C9A U10C U32G G33U ?
Resp: Yes

Req: Similarly, C6A U7A C9A U10A A30U A31U ?
Resp: Yes

Req: Similarly, U3G U4C G5A U7C G8A U10C ?
Resp: Yes

Req: Similarly, G5C C6G U7C U10C C24U A25C ?
Resp: Yes

Req: Similarly, G5A C6G U7G C9A C44G A45U ?
Resp: No

Req: Similarly, A35G C36U ?
Resp: No

Req: Similarly, C6A U7C C9A U10C G42A G43C ?
Resp: Yes

Req: Similarly, U3G U4G ?
Resp: No

Req: Similarly, A37C ?
Resp: Yes

Req: Similarly, G5C C6U G8C C9U U10C A35U C36U ?
Resp: No

Req: Similarly, U4C G5C C6G U7C U10C ?
Resp: Yes

Req: Similarly, G5C C6A U7C G8A U10A C44G A45G ?
Resp: No

Req: Similarly, C6A U7C C9A U10C G15C C16U ?
Resp: Yes

Req: Similarly, A45U G46C ?
Resp: Yes

Req: Similarly, C6A U7A C9U U10C ?
Resp: Yes

Req: Similarly, G2C U3C G5C C6A U7C G8A U10A ?
Resp: Yes
